target: WEE1 (Homo sapiens); construct: purchased Thermo Fisher PR7373A; assay: Selectivity versus WEE1 assay (ADP-Glo enzymatic assay); type: biochemical; details: fold difference in selectivity for PKMYT1 over WEE1; banded; ">N" = at least in this band but could be higher
Sequence (P30291 whole entry): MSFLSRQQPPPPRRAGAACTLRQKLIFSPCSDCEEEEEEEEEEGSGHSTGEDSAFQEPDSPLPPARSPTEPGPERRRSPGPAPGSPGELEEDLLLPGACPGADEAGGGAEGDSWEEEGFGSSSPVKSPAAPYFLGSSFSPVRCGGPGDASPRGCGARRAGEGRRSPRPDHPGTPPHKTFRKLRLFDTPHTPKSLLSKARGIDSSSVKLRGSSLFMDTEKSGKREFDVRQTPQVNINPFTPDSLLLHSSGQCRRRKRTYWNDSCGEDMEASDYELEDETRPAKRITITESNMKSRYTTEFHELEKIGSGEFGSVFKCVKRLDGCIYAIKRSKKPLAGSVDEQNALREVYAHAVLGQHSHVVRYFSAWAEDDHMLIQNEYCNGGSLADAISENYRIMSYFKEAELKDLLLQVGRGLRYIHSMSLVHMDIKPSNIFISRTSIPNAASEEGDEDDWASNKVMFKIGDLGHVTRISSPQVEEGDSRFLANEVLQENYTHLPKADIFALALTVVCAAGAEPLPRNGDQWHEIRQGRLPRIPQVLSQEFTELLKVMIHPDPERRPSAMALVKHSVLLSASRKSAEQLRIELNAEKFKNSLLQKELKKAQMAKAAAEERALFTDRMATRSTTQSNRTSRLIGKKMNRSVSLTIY
observed-property: PKMYT1 vs. WEE1 selectivity

# molecule, PKMYT1 vs. WEE1 selectivity
measured = [
    ("Cc1ccc(O)c(C)c1NC(=O)c1cnc(Nc2ccn(CC(=O)N3CCN(C(=O)N(C)C)CC3)n2)s1", "Y (1000-5000 fold)"),
    ("Cc1ccc(NC(=O)c2ccc(C(F)(F)F)cc2)nc1Nc1ncc(C(=O)Nc2c(C)ccc(O)c2C)s1", "X (100-<1000 fold)"),
    ("Cc1ccc(O)c(C)c1NC(=O)c1cnc(Nc2ccn(CC(=O)N3CC4(CNC4)C3)n2)s1 [BAA-200, 2,2,2-trifluoroacetate]", "X (100-<1000 fold)"),
    ("Cc1ccc(O)c(C)c1NC(=O)c1cnc(Nc2cc(Cl)cc(NC(=O)C(C)(C)C)n2)s1.Cl", "X (100-<1000 fold)"),
]

Given the entry `Cc1ccc(O)c(C)c1NC(=O)c1cnc(Nc2ccn(CC(=O)N3CCN(CCO)CC3)n2)s1` , report its measured PKMYT1 vs. WEE1 selectivity.
Y (1000-5000 fold)

Recorded PKMYT1 vs. WEE1 selectivity for `CCN(CC)C(=O)Cn1cc(C)c(Nc2ncc(C(=O)Nc3c(C)ccc(O)c3C)s2)n1` , please?
X (100-<1000 fold)

====

molecular target: WEE1 (Homo sapiens); construct: purchased Thermo Fisher PR7373A; assay: Selectivity versus WEE1 assay (ADP-Glo enzymatic assay); format: biochemical; settings: fold difference in selectivity for PKMYT1 over WEE1; banded; ">N" = at least in this band but could be higher
observed-property: PKMYT1 vs. WEE1 selectivity

Example results:
# compound, PKMYT1 vs. WEE1 selectivity
measured = [
    ("Cc1ccc(O)c(C)c1NC(=O)c1cnc(Nc2ccn([C@@H]3CCN(C(=O)CC(C)(C)C)C3)n2)s1 [BAA-081]", ">X (100-<1000 fold)"),
    ("Cc1ccc(O)c(C)c1NC(=O)c1cnc(Nc2ccn(CCN)n2)s1 [BAA-053]", "W (10-<100 fold)"),
    ("Cc1ccc(O)c(C)c1NC(=O)c1cnc(Nc2ccn(C3CCCCC3)n2)s1 [BAA-015]", "X (100-<1000 fold)"),
    ("Cc1ccc(O)c(C)c1NC(=O)c1cnc(NCc2cc3ccccc3[nH]2)s1 [BAA-357]", "X (100-<1000 fold)"),
    ("Cc1ccc(O)c(C)c1NC(=O)c1cnc(Nc2ccn(CC(=O)N3CCNCC3)n2)s1 [BAA-222]", "X (100-<1000 fold)"),
    ("Cc1ccc(O)c(C)c1NC(=O)c1cnc(Nc2ccn([C@@H]3CCN(C(=O)Cc4cccs4)C3)n2)s1 [BAA-098]", ">X (100-<1000 fold)"),
]

Item under review: Cc1ccc(O)c(C)c1NC(=O)c1cnc(Nc2cccc(S(=O)(=O)C(F)(F)F)c2)s1 [BAA-284] . Reported PKMYT1 vs. WEE1 selectivity?
W (10-<100 fold)

====

target: WEE1 (Homo sapiens); construct: purchased Thermo Fisher PR7373A; experiment: Selectivity versus WEE1 assay (ADP-Glo enzymatic assay); format: biochemical; conditions: fold difference in selectivity for PKMYT1 over WEE1; banded; ">N" = at least in this band but could be higher
observed-property: PKMYT1 vs. WEE1 selectivity

Illustrative cases are given below, each with its answer.
# compound, experimental-target, PKMYT1 vs. WEE1 selectivity
rows = [
    ("Cc1ccc(O)c(C)c1NC(=O)c1cnc(Nc2cc(C)n(CC(=O)N3CCCC3)n2)s1", "WEE1 (Homo sapiens)", "Y (1000-5000 fold)"),
    ("Cc1ccc(O)c(C)c1NC(=O)c1cnc(Nc2c(C)cnn2Cc2cccc(F)c2)s1", "WEE1 (Homo sapiens)", "W (10-<100 fold)"),
    ("Cc1ccc(O)c(C)c1NC(=O)c1cnc(Nc2ccn([C@@H]3CCN(C(=O)C(C)(C)C)C3)n2)s1", "WEE1 (Homo sapiens)", ">X (100-<1000 fold)"),
    ("Cc1ccc(O)c(C)c1NC(=O)c1cnc(Nc2ccn(CC(=O)N3CCOCC3)n2)s1", "WEE1 (Homo sapiens)", "X (100-<1000 fold)"),
    ("Cc1ccc(O)c(C)c1NC(=O)c1cnc(Nc2ccn(CC(=O)NCC3CCNCC3)n2)s1", "WEE1 (Homo sapiens)", "X (100-<1000 fold)"),
]

Look at this compound and give its reported PKMYT1 vs. WEE1 selectivity. `Cc1ccc(O)c(C)c1NC(=O)c1cnc(Nc2ccn(C3CCC3)n2)s1`
W (10-<100 fold)

Fill in the blank: the reported PKMYT1 vs. WEE1 selectivity of `COc1ccc(CNc2ncc(C(=O)Nc3c(C)ccc(O)c3C)s2)cc1` is ____.
X (100-<1000 fold)

Given the entry `Cc1ccc(O)c(C)c1NC(=O)c1cnc(Nc2ccn(C(C)C)n2)s1` , report its measured PKMYT1 vs. WEE1 selectivity.
X (100-<1000 fold)

Recorded PKMYT1 vs. WEE1 selectivity for `Cc1ccc(O)c(C)c1NC(=O)c1cnc(Nc2cc(C)n(CC(C)C)n2)s1` , please?
W (10-<100 fold)

Looking for the measured PKMYT1 vs. WEE1 selectivity of `Cc1ccc(O)c(C)c1NC(=O)c1cnc(Nc2ccn(CC(=O)NCCO)n2)s1` , can you help?
Y (1000-5000 fold)

Which value of PKMYT1 vs. WEE1 selectivity has been reported for `Cc1ccc(O)c(C)c1NC(=O)c1cnc(Nc2ccn([C@@H]3CCN(C(=O)CC4CCNCC4)C3)n2)s1` in the records?
>X (100-<1000 fold)

# input compound: `Cc1ccc(O)c(C)c1NC(=O)c1cnc(Nc2ccc(F)cc2F)s1` ; wanted: its PKMYT1 vs. WEE1 selectivity
X (100-<1000 fold)

Item `Cc1ccc(O)c(C)c1NC(=O)c1cnc(Nc2ccn(CC(=O)N3CCCCC3)n2)s1` has what recorded PKMYT1 vs. WEE1 selectivity?
Y (1000-5000 fold)

Look up PKMYT1 vs. WEE1 selectivity for this compound: `Cc1nc(Nc2ncc(C(=O)Nc3c(C)ccc(O)c3C)s2)cc(N2CCN(CCO)CC2)n1`
W (10-<100 fold)

What does the data say about its PKMYT1 vs. WEE1 selectivity? Entry: `Cc1ccc(O)c(C)c1NC(=O)c1cnc(Nc2ccn(CC(=O)N[C@@H](C)CO)n2)s1`
Y (1000-5000 fold)

# input compound: `Cc1ccc(O)c(C)c1NC(=O)c1cnc(Nc2ncc3cc(F)ccc3n2)s1` ; wanted: its PKMYT1 vs. WEE1 selectivity
Y (1000-5000 fold)
